Recorded values, source BindingDB's records for doi:10.1021/jm00352a017.

procedure text: Michaelis-Menten constant for inhibition of rat kidney pyruvate kinase (PK-K)
metric name: Ki (mM)
Report only the number, with the unit mM understood.

## Task Requested field: Ki. Item: C[C@@H](OP(=O)(O)OP(=O)(O)O)[C@H]1OC(n2cnc3c(N)ncnc32)[C@H](O)[C@@H]1O (stereo partly specified)
## Result 8

* * *

procedure text: Inhibition of rat kidney pyruvate kinase (PK-K)
metric name: Ki (mM)
Your answer should be a plain number; it is taken to be in mM.

Some solved cases for reference:
## Task Entry CCSc1nc2c(N)ncnc2n1C1O[C@H](COP(=O)(O)OP(=O)(O)O)[C@@H](O)[C@H]1O (stereo partly drawn) : reported Ki = ?
## Result 3.9

## Task May I ask what Ki has been recorded for CCNc1nc2c(N)ncnc2n1C1O[C@H](COP(=O)(O)OP(=O)(O)O)[C@@H](O)[C@H]1O (stereo partly drawn) ?
## Result 2.9

Pending compound:
## Task I'd like to know its Ki. The compound in question is CSc1nc2c(N)ncnc2n1C1O[C@H](COP(=O)(O)OP(=O)(O)O)[C@@H](O)[C@H]1O (stereo partly drawn)
## Result 5
